Readings of H1.0 immunofluorescence intensity for the listed compounds
# Tested on: TDF;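 further: TDF is a line of transformed human dermal fibroblasts of mesenchymal origin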
# PROTOCOL_SUMMARY: H1.0 immunofluorescence intensity relative to DMSO (% of DMSO); higher = stronger H1.0 induction, active = 120 or more
# PARTICULARS: concentration: 10 µM; 24 h

Use these answered entries as a reference point.
For "COc1ccc(CCN2CCC(Nc3nc4ccccc4n3Cc3ccc(F)cc3)CC2)cc1" the compound record lists H1.0 immunofluorescence intensity as 109 (inactive)

For "CC(C)(C)c1cc(C=C(C#N)C#N)cc(C(C)(C)C)c1O" the compound record lists H1.0 immunofluorescence intensity as 117 (inactive)

For Br.C#CCOC(=O)C1=CCCN(C)C1 [Arecaidine propargyl ester hydrobromide] the compound record lists H1.0 immunofluorescence intensity as 93.1 (inactive)

For CCC1(c2ccc(N)cc2)CCC(=O)NC1=O (racemic) the compound record lists H1.0 immunofluorescence intensity as 85.7 (inactive)

For "COc1ccc(C(=O)c2c(C)n(CCN3CCOCC3)c3ccccc23)cc1" the compound record lists H1.0 immunofluorescence intensity as 98.4 (inactive)

Further cases:
For CC1OC(OC2CC(O)C3(CO)C4C(O)CC5(C)C(C6COC(=O)C6)CCC5(O)C4CCC3(O)C2)C(O)C(O)C1O (stereo not drawn) [Dihydroouabain] the compound record lists H1.0 immunofluorescence intensity as 104 (inactive)

For CNCCc1ccc(O)c(O)c1.Cl [N-Methyldopamine hydrochloride] the compound record lists H1.0 immunofluorescence intensity as 95.3 (inactive)

For CS(=O)(=O)O.O.Oc1ccc2c3c1OC1c4oc5ccccc5c4CC4(O)C(C2)N(CC2CC2)CCC314 (stereo not drawn) [Naltriben methanesulfonate hydrate] the compound record lists H1.0 immunofluorescence intensity as 92.8 (inactive)

---

# Tested on: HCC1569;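 further: TDF denotes transformed human dermal fibroblasts of mesenchymal origin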
# PROTOCOL_SUMMARY: cell number relative to DMSO (% of DMSO); higher = more cells (less growth inhibition / toxicity)
# PARTICULARS: concentration: 10 µM; 24 h
Readings of cell number for the listed molecules
Hey, just send me the number, nothing else.

For CC(Cc1ccc(OCC(=O)[O-])cc1)NCC(O)c1cccc(Cl)c1.[Na+] (centres undefined) the molecule record lists cell number as 104

For CC1=CC23C(=O)C(C=C(CO)C(O)C2(O)C1O)C1C(CC3C)C1(C)C (centres undefined) [Ingenol] the molecule record lists cell number as 102

For CCCCCCCCCCCCCC(=O)OC1C(C)C2(O)C(C=C(CO)CC3(O)C(=O)C(C)=CC32)C2C(C)(C)C12OC(C)=O (stereo not drawn) [4alpha-Phorbol-12-myristate-13-acetate] the molecule record lists cell number as 98.4

Further cases:
For O=C(O)C1C2CCC(O2)C1C(=O)O (centres undefined) [Endothall] the molecule record lists cell number as 97.6

For O=c1cccc2n1CC1CNCC2C1 (single isomer, unassigned; (-)) [(-)-Cytisine] the molecule record lists cell number as 103

---

# Tested on: HCC1569;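 further: TDF denotes transformed human dermal fibroblasts of mesenchymal origin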
# PROTOCOL_SUMMARY: cell number relative to DMSO (% of DMSO); higher = more cells (less growth inhibition / toxicity)
# PARTICULARS: concentration: 10 µM; 24 h
REPORTED_ENDPOINT: cell number
Hey, just send me the number, nothing else.

Use these answered entries as a reference point.
For "CCCN(CCC)C(=O)Cc1c(-c2ccc(Cl)cc2)nc2c(Cl)cc(Cl)cn12" the molecule record lists cell number as 103

For C/C(Nc1ccccc1)=C1\C(=O)NC(Cc2ccccc2)C1=O (configuration not stated) [(3E)-3-(1-anilinoethylidene)-5-benzyl-2,4-pyrrolidinedione] the molecule record lists cell number as 60.4

Further cases:
For OC1CN2CCC(O)C2C(O)C1O (configuration not stated) [Castanospermine] the molecule record lists cell number as 100

For COC1=C(OC)C(=O)C(=C2C(C)=C(C(=O)O)NC(c3ccc4c(n3)C(=O)C(N)=C(OC)C4=O)=C2N)C=C1 [Streptonigrin] the molecule record lists cell number as 41.2

For Cl.O=C(O)Cc1cnc[nH]1 [Imidazole-4-acetic acid hydrochloride] the molecule record lists cell number as 105

For CCCN1CCOC2c3cc(O)ccc3OCC21.Cl (stereo not drawn) [S(+)-PD 128,907 hydrochloride] the molecule record lists cell number as 103

For CCCN1CC(CSC)CC2c3cccc4[nH]cc(c34)CC21.CS(=O)(=O)O (configuration not stated) [Pergolide methanesulfonate] the molecule record lists cell number as 98.8

For Cl.O=C1CCC2(O)C3Cc4ccc(O)c5c4C2(CCN3CC2CC2)C1O5 (configuration not stated) [Naltrexone.HCl] the molecule record lists cell number as 101

For CN1C2CCC1CC(OC(c1ccccc1)c1ccccc1N)C2 (configuration not stated) [Aminobenztropine] the molecule record lists cell number as 103

For "O=C(O)C(=O)c1cn(Cc2ccccc2)c2ccc(-c3ccc(OC(F)(F)F)cc3)cc12" the molecule record lists cell number as 99.9
